target: 5-HT2A receptor (Homo sapiens (Human)); experiment: DOI radioligand binding assay, 5-HT2A; details: [125I]DOI competition, HEK293 cell membranes; read-out: DOI Binding 5HT2A
Sequence (P28223 whole entry): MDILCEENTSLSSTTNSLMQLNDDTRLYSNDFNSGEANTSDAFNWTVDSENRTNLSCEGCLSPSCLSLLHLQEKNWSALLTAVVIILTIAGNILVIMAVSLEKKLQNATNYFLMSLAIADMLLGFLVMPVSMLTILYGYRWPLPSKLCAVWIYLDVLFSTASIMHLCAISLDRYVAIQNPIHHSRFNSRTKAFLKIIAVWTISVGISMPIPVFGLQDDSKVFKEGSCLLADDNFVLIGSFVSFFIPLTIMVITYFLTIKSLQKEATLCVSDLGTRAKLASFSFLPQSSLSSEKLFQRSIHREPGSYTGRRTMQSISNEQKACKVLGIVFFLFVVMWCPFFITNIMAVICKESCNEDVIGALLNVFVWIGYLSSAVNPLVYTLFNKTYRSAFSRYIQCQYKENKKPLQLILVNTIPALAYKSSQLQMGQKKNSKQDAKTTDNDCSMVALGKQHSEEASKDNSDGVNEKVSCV
Exercise: state measured Ki for each of the molecules provided.
One number for each entry, in nM.

1) CC(C)OCc1ccnc2c1CC[C@@H]1CNCCN21; 222

Please go through the list and note Ki for each molecule.
1. CCc1c(CC2CCCC2)cnc2c1CC[C@@H]1CNCCN21
2. Clc1ncnc2c1CC[C@@H]1CNCCCN21
3. c1cc(COCC2CCOCC2)c2c(n1)N1CCNC[C@H]1CC2
4. CC1CC2CNCCN2c2ncccc21 (stereo not shown)
5. Brc1ccnc2c1CC[C@@H]1CNCCCN21
6. CSc1nc(Cl)c2c(n1)N1CCCNC[C@H]1CC2

Result:
1: 351; 2: 100000; 3: 1670; 4: 1080; 5: 1390; 6: 12300

====

Exercise: state measured Ki for each of the molecules provided.
biological target: 5-HT2A receptor (Homo sapiens (Human)); assay: DOI radioligand binding assay, 5-HT2A; conditions: [125I]DOI competition, HEK293 cell membranes; read-out: DOI Binding 5HT2A
Answers are plain numbers, in nM.

# example entries with known answers
1. c1cc(C2CCC2)c2c(n1)N1CCNC[C@H]1CC2; 10.3
2. c1cc(CC2CCCCO2)c2c(n1)N1CCNC[C@H]1CC2 (some centres unmarked); 212
3. COCCc1ccnc2c1CC[C@@H]1CNCCN21; 99.5
4. CCc1c(CC2CCCCC2)cnc2c1CC[C@@H]1CNCCN21; 703
5. Fc1ccccc1Cc1ccnc2c1CC[C@@H]1CNCCN21; 2.65

Please go through the list and note Ki for each molecule.
1. CCc1c(COC(C)C)cnc2c1CC[C@@H]1CNCCN21
2. Brc1cncc2c1CC[C@@H]1CNCCN21
3. CSc1nc(Cl)c2c(n1)N1CCNC[C@H]1CC2
4. c1ncc2c(c1CC1CCCCC1)CC[C@@H]1CNCCN21

Result:
1. 468
2. 72.3
3. 129
4. 107

Please go through the list and note Ki for each molecule.
1. CCc1c(CCC#N)cnc2c1CC[C@@H]1CNCCN21
2. CCCc1ccnc2c1CC[C@@H]1CNCCN21
3. c1csc(-c2ccnc3c2CC[C@@H]2CNCCN32)c1
4. CCCCCc1ccnc2c1CC[C@@H]1CNCCN21
5. CCCC(C)c1ccnc2c1CC[C@@H]1CNCCN21 (some centres unmarked)
6. c1ccc(Cc2ccnc3c2CC[C@@H]2CNCCN32)cc1
7. C/C=C/Cc1ccnc2c1CC[C@@H]1CNCCN21

Result:
1260
6.85
68.8
2.3
25.9
1.19
5.01

Please go through the list and note Ki for each molecule.
1. CCCc1cncc2c1CC[C@@H]1CNCCN21
2. N#CCCc1ccnc2c1CC[C@@H]1CNCCN21

Result:
1: 44; 2: 840

Please go through the list and note Ki for each molecule.
1. CCc1ccnc2c1CC[C@@H]1CNCCN21
2. Clc1ccc(-c2ccnc3c2CC[C@@H]2CNCCN32)nc1

Result:
1. 16.1
2. 5390

====

Exercise: state measured EC50 for each of the compounds provided.
target: 5-HT2B receptor (Homo sapiens (Human), UniProt P41595); assay: IP accumulation assay, 5-HT2B; assay type: cell-based; settings: IP accumulation, HEK293 cells, 2 h at 37° C.; read-out: EC50 5HT2B
Sequence (P41595 whole entry): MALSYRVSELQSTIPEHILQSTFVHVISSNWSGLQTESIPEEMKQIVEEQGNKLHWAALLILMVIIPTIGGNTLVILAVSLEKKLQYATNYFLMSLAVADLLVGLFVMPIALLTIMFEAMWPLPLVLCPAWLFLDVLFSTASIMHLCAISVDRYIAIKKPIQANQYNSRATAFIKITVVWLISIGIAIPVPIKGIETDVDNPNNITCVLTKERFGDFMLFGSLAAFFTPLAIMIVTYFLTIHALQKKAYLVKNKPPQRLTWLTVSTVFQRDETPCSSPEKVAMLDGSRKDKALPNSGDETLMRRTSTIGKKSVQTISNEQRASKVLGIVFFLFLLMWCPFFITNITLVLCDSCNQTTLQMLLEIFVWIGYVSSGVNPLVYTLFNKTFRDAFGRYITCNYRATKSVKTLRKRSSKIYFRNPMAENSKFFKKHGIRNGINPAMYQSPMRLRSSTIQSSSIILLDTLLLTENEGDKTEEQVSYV

# example entries with known answers
1) O=C(Nc1ccnc2c1CC[C@@H]1CNCCN21)c1cccc(F)c1F [Compound 138]; ≥ 100000 nM
2) CCOC(=O)Nc1ccnc2c1CC[C@@H]1CNCCN21 [Compound 123]; ≥ 100000 nM
3) c1cc(C2CCCCC2)c2c(n1)N1CCNC[C@H]1CC2 [Compound 127]; 919 nM
4) c1cc2c(cn1)N1CCNC[C@H]1CC2 [Compound 153]; 779 nM
5) O=C(Nc1ccnc2c1CC[C@@H]1CNCCN21)C1CC1 [Compound 141]; ≥ 100000 nM
6) FC(F)(F)c1ccccc1-c1ccnc2c1CC[C@@H]1CNCCN21 [Compound 134]; 1730 nM
7) O=C(Cc1ccccc1)Nc1ccnc2c1CC[C@@H]1CNCCN21 [Compound 124]; ≥ 100000 nM

Next compound, please.
Request: Respond only with EC50 recorded for O=C(Nc1ccnc2c1CC[C@@H]1CNCCN21)c1ccccc1Cl [Compound 104]
Result: ≥ 100000 nM

====

target: 5-HT2A receptor (Homo sapiens (Human)); assay: IP accumulation assay, 5-HT2A; type: cell-based; conditions: IP accumulation, HEK293 cells, 2 h at 37° C.; read-out: EC50 5HT2A
endpoint: EC50 (µM)
One number for each entry, in µM.

Please go through the list and note EC50 for each molecule.
1. c1cnc2c(c1)CC[C@@H]1CNCCN21
2. c1cc2c(cn1)N1CCNC[C@H]1CC2
3. c1ccc(Cc2ccnc3c2CC[C@@H]2CNCCN32)cc1
4. c1cc(C2CCC2)c2c(n1)N1CCNC[C@H]1CC2
5. Fc1cccc(Cc2ccnc3c2CC[C@@H]2CNCCN32)c1

Result:
100
100
0.0532
0.236
0.0372

====

target: 5-HT2C receptor (Homo sapiens (Human)); assay: IP accumulation assay, 5-HT2C; type: cell-based; conditions: IP accumulation, HEK293 cells, 2 h at RT; read-out: EC50 5HT2C
Sequence (P28335 33-458): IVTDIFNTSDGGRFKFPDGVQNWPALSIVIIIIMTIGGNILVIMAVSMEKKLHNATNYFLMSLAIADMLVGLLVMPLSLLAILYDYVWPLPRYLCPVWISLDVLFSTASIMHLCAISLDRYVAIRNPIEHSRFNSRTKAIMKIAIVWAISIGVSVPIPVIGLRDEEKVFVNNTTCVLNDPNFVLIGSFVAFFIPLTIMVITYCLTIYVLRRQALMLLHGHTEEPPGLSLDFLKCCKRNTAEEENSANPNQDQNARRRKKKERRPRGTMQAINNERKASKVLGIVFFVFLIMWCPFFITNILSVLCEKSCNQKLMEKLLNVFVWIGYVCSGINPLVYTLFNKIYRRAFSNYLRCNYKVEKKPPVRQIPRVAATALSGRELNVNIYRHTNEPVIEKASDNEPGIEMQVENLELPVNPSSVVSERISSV
Exercise: state measured pEC50 for each of the compounds provided.
Give bare numbers, as −log10 of the molar value.

1. O=C(Nc1ccnc2c1CC[C@@H]1CNCCN21)c1cccc(F)c1F; 5.24
2. O=C(NCC(F)F)c1ccnc2c1CC[C@@H]1CNCCN21; 5.34
3. O=C(Nc1ccnc2c1CC[C@@H]1CNCCN21)N1CCCC1; 4.00
4. c1ccc(Cc2ccnc3c2CC[C@@H]2CNCCN32)cc1; 9.94

Request: Respond only with pEC50 recorded for `O=C(Cc1ccccc1)Nc1ccnc2c1CC[C@@H]1CNCCN21`
Result: 5.44

====

target: UniProt:P28335; test: IP accumulation assay, 5-HT2C; type: cell-based; conditions: IP accumulation, HEK293 cells, 2 h at RT; read-out: EC50 5HT2C
endpoint: EC50

# example entries with known answers
1. O=C(Nc1ccnc2c1CC[C@@H]1CNCCN21)c1ccccc1; 100 µM
2. FC(F)(F)c1ccccc1-c1ccnc2c1CC[C@@H]1CNCCN21; 5.61 µM
3. CCOC(=O)Nc1ccnc2c1CC[C@@H]1CNCCN21; 0.898 µM

Please go through the list and note EC50 for each compound.
1. O=C(Nc1ccnc2c1CC[C@@H]1CNCCN21)C1CC1
2. CNC(=O)c1ccnc2c1CC[C@@H]1CNCCN21
3. FC(F)(F)Oc1cccc(-c2ccnc3c2CC[C@@H]2CNCCN32)c1
4. c1cc2c(cn1)N1CCNC[C@H]1CC2
5. COc1ccc(-c2ccnc3c2CC[C@@H]2CNCCN32)cc1

Result:
100 µM
100 µM
3.07 µM
0.329 µM
5.41 µM

Request: Specify EC50 for `Fc1cccc(Cc2ccnc3c2CC[C@@H]2CNCCN32)c1` , system UniProt:P28335.
Result: 0.00019 µM

====

target: 5-HT2B receptor (Homo sapiens (Human), UniProt P41595)
Response field label: string, one of MET (Ki strictly below 200 nM) or NOT MET.

1. COCCc1ccnc2c1CC[C@@H]1CNCCN21; MET

Note: attention shifts to another entry.
Request: Ki strictly < 200 nM for this compound? `Brc1ccnc2c1CC[C@@H]1CNCCCN21`
Result: MET

====

Exercise: state measured pKi for each of the molecules provided.
biological target: UniProtKB P41595; assay: DOI radioligand binding assay, 5-HT2B; conditions: [125I]DOI competition, HEK293 cell membranes
Answers are plain numbers, as −log10 of the molar value.

1) CCc1c(CCC#N)cnc2c1CC[C@@H]1CNCCN21 [Compound 162]; 6.60
2) c1csc(-c2ccnc3c2CC[C@@H]2CNCCN32)c1 [Compound 126]; 6.91
3) c1cc(CC2CCCCO2)c2c(n1)N1CCNC[C@H]1CC2 (some centres unmarked) [Compound 132]; 5.96

Please go through the list and note pKi for each molecule.
1. Clc1ncnc2c1CC[C@@H]1CNCCCN21 [Compound 160]
2. CC(C)Cc1ccnc2c1CC[C@@H]1CNCCN21 [Compound 114]

Result:
1: 5.74; 2: 7.48
